System: AHR-dependent transcription of the CYP1A1 gene
Protocol notes: CYP1A1 induction in mouse macrophages
Type: cell-based
Condition label: 50 nM
Recorded CYP1A1 induction (% of ITE ± SEM), one value per entry.

Molecule | Reported measurement
COC(=O)c1cccc(C(=O)c2c[nH]c3c4c(ccc23)CCC4)n1 | 129 ± 8 % of ITE
O=C(c1cccc(-c2ccccc2)n1)c1c[nH]c2ccccc12 | 91 ± 7 % of ITE
COC(=O)c1cccc(C(=O)c2c[nH]c3ccc(Br)cc23)n1 | 138 ± 8 % of ITE

Task: Reported CYP1A1 induction (% of ITE ± SEM) for COc1ccccc1C(=O)c1c[nH]c2ccccc12 : what is it?
Output: 6 ± 1 % of ITE

Task: Reported CYP1A1 induction (% of ITE ± SEM) for COC(=O)c1ccc(C(=O)c2c[nH]c3ccccc23)s1 : what is it?
Output: 99 ± 18 % of ITE

====

Test system: AHR-dependent transcription of the CYP1A1 gene
Protocol notes: CYP1A1 induction in mouse macrophages
Format: cell-based
Condition label: 50 nM
Listed next: entries and their corresponding CYP1A1 induction (% of ITE ± SEM).

Take a look at these entries with their results.
Molecule | CYP1A1 induction (% of ITE ± SEM)
O=C(c1cccc(Cl)n1)c1c[nH]c2ccccc12 | 86 ± 47 % of ITE
COC(=O)c1cccc(C(=O)c2n[nH]c3ccccc23)c1 [reference compound] | 14 ± 4 % of ITE

Task: Which CYP1A1 induction (% of ITE ± SEM) is listed for COC(=O)c1cccc(C(=O)c2c[nH]c3ccc(OC)cc23)n1 ?
Output: 121 ± 12 % of ITE

Task: Query: CYP1A1 induction (% of ITE ± SEM); subject: COC(=O)c1cccc(C(=O)c2c[nH]c3c(Cl)cccc23)n1
Output: 49 ± 19 % of ITE
